target: UniProtKB Q8ILY1; experiment: Fluorescence-based high-throughput DNA polymerase assay (molecular beacon), primary screen and dose-response; format: biochemical; details: DRC-2; 40'; concentration 20
The label depends only on % inhibition Apol 40': Met if it is at least 50%, Not met if it is smaller.

>  <COMPOUND>
CSC1=C(C#N)C(=C(C#N)C#N)NC(c2ccccc2)=N1 [Molecule 2, CSc1nc([nH]c(=C(C#N)C#N)c1C#N)c1ccccc1]

>  <STUDY TARGET>
UniProtKB Q8ILY1

>  <CLASS>
Met

$$$$
>  <COMPOUND>
O=C1CCCC2=C1C(c1ccccn1)C1=C(CCCC1=O)O2 [KU0194228]

>  <STUDY TARGET>
UniProtKB Q8ILY1

>  <CLASS>
Not met

$$$$
>  <COMPOUND>
N#Cc1c(C2CCCCC2)nc(Sc2ccc(C(F)(F)F)cc2[N+](=O)[O-])[nH]c1=O [Molecule 20]

>  <STUDY TARGET>
UniProtKB Q8ILY1

>  <CLASS>
Met

$$$$
>  <COMPOUND>
Cc1ccc2c(C(=O)NCCc3cccnc3)cc(NC(=O)C(C)C)cc2n1 [KU0206096]

>  <STUDY TARGET>
UniProtKB Q8ILY1

>  <CLASS>
Not met

$$$$
>  <COMPOUND>
C=CCOc1c(Br)cc(Br)cc1/C=C1\SC(=N)NC1=O [KU0051640]

>  <STUDY TARGET>
UniProtKB Q8ILY1

>  <CLASS>
Met

$$$$
>  <COMPOUND>
O=c1[nH]c2ccc(Br)cc2c(-c2ccccc2)c1C1=NNC(c2ccco2)C1 (stereo not drawn) [KU0045540]

>  <STUDY TARGET>
UniProtKB Q8ILY1

>  <CLASS>
Met

$$$$
>  <COMPOUND>
CC(C)CCNC(=O)c1cnn2c(O)cc(CSc3ccc(Cl)cc3)nc12 [Molecule 101]

>  <STUDY TARGET>
UniProtKB Q8ILY1

>  <CLASS>
Met

$$$$
>  <COMPOUND>
Nc1cc(Oc2ccc(O)c(N)c2)ccc1O [KU0034728]

>  <STUDY TARGET>
UniProtKB Q8ILY1

>  <CLASS>
Met

$$$$
>  <COMPOUND>
COc1cc(Cl)c(C)cc1NC(=O)Cn1ccc2c(=O)[nH]ccc21 [Molecule 33]

>  <STUDY TARGET>
UniProtKB Q8ILY1

>  <CLASS>
Met

$$$$

---

target: bacteriophage T4 DNA polymerase (Enterobacteria phage T4); construct: made in house; experiment: Counter-screen against bacteriophage T4 DNA polymerase; type: biochemical; details: DRC-2; read at 90'; concentration 40
Sequence (P04415 whole entry): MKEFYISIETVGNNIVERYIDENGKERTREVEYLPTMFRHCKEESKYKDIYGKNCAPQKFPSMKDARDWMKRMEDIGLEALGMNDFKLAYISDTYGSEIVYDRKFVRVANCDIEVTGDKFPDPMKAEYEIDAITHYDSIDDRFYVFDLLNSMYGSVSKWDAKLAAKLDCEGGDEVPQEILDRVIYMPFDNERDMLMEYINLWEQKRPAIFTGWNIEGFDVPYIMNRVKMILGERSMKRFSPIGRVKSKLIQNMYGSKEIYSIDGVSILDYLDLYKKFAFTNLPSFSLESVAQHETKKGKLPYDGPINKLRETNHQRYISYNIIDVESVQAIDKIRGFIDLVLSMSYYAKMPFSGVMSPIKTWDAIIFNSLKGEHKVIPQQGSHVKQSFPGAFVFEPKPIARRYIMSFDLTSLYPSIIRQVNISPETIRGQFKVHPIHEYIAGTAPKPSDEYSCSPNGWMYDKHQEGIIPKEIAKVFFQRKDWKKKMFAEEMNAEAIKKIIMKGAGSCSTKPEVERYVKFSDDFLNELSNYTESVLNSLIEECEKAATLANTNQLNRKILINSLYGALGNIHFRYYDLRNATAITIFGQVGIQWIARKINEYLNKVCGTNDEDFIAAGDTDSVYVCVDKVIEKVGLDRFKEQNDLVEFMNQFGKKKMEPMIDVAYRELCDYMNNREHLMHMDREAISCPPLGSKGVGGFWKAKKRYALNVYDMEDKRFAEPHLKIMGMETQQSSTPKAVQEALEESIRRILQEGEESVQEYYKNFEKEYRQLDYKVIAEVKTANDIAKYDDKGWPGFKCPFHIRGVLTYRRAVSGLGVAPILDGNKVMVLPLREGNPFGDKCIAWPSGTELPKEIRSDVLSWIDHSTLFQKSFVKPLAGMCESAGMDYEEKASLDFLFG
Items are presented alongside their recorded % inhibition T4 90' 40.

>  <COMPOUND>
C#CC(C=CC)OC(=O)c1ccccc1C(=O)O (stereo not shown)

>  <% inhibition T4 90' 40 [%]>
6

$$$$
>  <COMPOUND>
CC(C)CC(C(=O)O)N1C(=O)C2C3C=CC(C2C1=O)C1C(=O)N(C(CC(C)C)C(=O)O)C(=O)C31 (stereo not shown)

>  <% inhibition T4 90' 40 [%]>
24

$$$$
>  <COMPOUND>
O=C(c1ccccc1)N1CCc2c(nc3cc(-c4ccccc4)[nH]n3c2=O)C1

>  <% inhibition T4 90' 40 [%]>
-15

$$$$
>  <COMPOUND>
Cn1nc(-c2nnc(-c3ccccc3F)o2)c2c1CCN(C(=O)c1ccccc1Cl)C2

>  <% inhibition T4 90' 40 [%]>
1.62

$$$$
>  <COMPOUND>
O=C1CSC2=NC3=C(CCc4ccccc43)C(c3cccs3)N12 (stereo not shown)

>  <% inhibition T4 90' 40 [%]>
6.37

$$$$
>  <COMPOUND>
COc1ccc(C2CC(c3ccc(Cl)cc3Cl)Nc3nc(N)nn32)cc1OC (stereo not shown)

>  <% inhibition T4 90' 40 [%]>
-0.348

$$$$
>  <COMPOUND>
COc1ccc(/C=C/c2cc(C(=O)O)c3ccccc3n2)cc1

>  <% inhibition T4 90' 40 [%]>
29

$$$$

---

Items are presented alongside their recorded % inhibition apPOL 180'.
Biological target: P. falciparum apicoplast DNA polymerase (Pf-apPOL) (Plasmodium falciparum, UniProt Q8ILY1)
Sequence (Q8ILY1 entry or part of it): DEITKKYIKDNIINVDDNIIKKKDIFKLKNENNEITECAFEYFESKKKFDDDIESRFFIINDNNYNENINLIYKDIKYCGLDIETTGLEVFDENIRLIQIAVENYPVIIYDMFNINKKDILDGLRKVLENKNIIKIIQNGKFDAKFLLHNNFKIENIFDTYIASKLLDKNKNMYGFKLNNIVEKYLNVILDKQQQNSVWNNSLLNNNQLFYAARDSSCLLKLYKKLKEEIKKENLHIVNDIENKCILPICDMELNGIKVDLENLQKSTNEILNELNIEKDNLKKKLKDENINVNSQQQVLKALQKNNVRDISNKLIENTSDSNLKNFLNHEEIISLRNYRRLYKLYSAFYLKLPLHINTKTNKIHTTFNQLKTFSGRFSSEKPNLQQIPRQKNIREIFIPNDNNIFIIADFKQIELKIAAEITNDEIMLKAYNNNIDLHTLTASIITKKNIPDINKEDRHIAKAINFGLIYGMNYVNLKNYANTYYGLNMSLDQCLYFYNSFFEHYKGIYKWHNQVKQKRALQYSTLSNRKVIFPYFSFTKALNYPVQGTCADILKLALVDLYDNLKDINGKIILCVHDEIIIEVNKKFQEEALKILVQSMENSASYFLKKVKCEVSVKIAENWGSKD
Experiment: Fluorescence-based high-throughput DNA polymerase assay (molecular beacon), primary screen and dose-response;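 as to % inhibition apPOL 180': test concentration in µM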
Type: biochemical
Settings: DRC-2; concentration 20; 180'
Excerpt: The HT assay employs a molecular beacon, a stem-loop DNA template with a Cy3 dye and the Black Hole Quencher on the 3′ and 5′ ends of the DNA, respectively. Pf-apPOL concentration is based on a calculated absorptivity of ε280 = 56750 M^−1 cm^−1. […] To identify apPOL inhibitors we utilised our previously developed high-throughput DNA polymerase assay. […] The assay accurately recapitulates the kinetic behaviour of apPOL, as measured through more conventional low-throughput gel-based assays. […]
REPORTED PROPERTY: % inhibition apPOL 180' (%)

>  <SMILES ENTRY>
O=[N+]([O-])c1ccc(SCc2ccco2)c2cccnc12

>  <NUMERIC READOUT>
53

$$$$
>  <SMILES ENTRY>
CCc1ccccc1NC(=O)c1ccc(-c2ncccc2NC(C)=O)cc1

>  <NUMERIC READOUT>
41

$$$$
>  <SMILES ENTRY>
O=C(O)c1cc([N+](=O)[O-])c(N2CCN(c3cccc(C(F)(F)F)c3)CC2)c([N+](=O)[O-])c1

>  <NUMERIC READOUT>
12

$$$$
>  <SMILES ENTRY>
O=C(Nc1c2c(nn1-c1ccccc1)CSC2)c1ccco1

>  <NUMERIC READOUT>
49

$$$$
>  <SMILES ENTRY>
CCCCCc1c2c(cc(O)c1C(=O)O)OC(=O)c1c(cc(OC)cc1C(=O)CCCC)O2

>  <NUMERIC READOUT>
32

$$$$
>  <SMILES ENTRY>
COc1ccc(-c2occ(C(=O)O)c2C(=O)O)cc1

>  <NUMERIC READOUT>
67

$$$$
>  <SMILES ENTRY>
O=C(O)c1nc(-c2ccccc2)nc2c1OCO2

>  <NUMERIC READOUT>
34

$$$$
>  <SMILES ENTRY>
Nc1ncnc(NC2CCCCC2)c1[N+](=O)[O-]

>  <NUMERIC READOUT>
26

$$$$
>  <SMILES ENTRY>
Cc1ccnc(NS(=O)(=O)c2ccc(-n3cccc3)cc2)n1

>  <NUMERIC READOUT>
48

$$$$

---

Items are presented alongside their recorded % inhibition Apo pol 10'.
target: P. falciparum apicoplast DNA polymerase (Pf-apPOL) (Plasmodium falciparum); assay: Fluorescence-based high-throughput DNA polymerase assay (molecular beacon), primary screen and dose-response; format: biochemical; details: DRC-1; 10'; concentration 80
REPORTED PROPERTY: % inhibition Apo pol 10' (%)

>  <COMPOUND>
O=c1cc(-c2ccccc2)oc2c(O)c(O)ccc12

>  <STUDY TARGET>
P. falciparum apicoplast DNA polymerase (Pf-apPOL) (Plasmodium falciparum)

>  <REPORTED PROPERTY>
% inhibition Apo pol 10'

>  <NUMERIC READOUT>
57.9256

$$$$
>  <COMPOUND>
CC(C)(C)OC(=O)COc1ccc2cc(-c3ccccc3)c(=O)oc2c1

>  <STUDY TARGET>
P. falciparum apicoplast DNA polymerase (Pf-apPOL) (Plasmodium falciparum)

>  <REPORTED PROPERTY>
% inhibition Apo pol 10'

>  <NUMERIC READOUT>
23.4286

$$$$
>  <COMPOUND>
COc1cc(Cl)c(C)cc1NC(=O)Cn1ccc2c(=O)[nH]ccc21

>  <STUDY TARGET>
P. falciparum apicoplast DNA polymerase (Pf-apPOL) (Plasmodium falciparum)

>  <REPORTED PROPERTY>
% inhibition Apo pol 10'

>  <NUMERIC READOUT>
78.8716

$$$$
>  <COMPOUND>
O=C(O)CC1SC(c2ccc3c(c2)OCO3)=NC1=O (centres unmarked)

>  <STUDY TARGET>
P. falciparum apicoplast DNA polymerase (Pf-apPOL) (Plasmodium falciparum)

>  <REPORTED PROPERTY>
% inhibition Apo pol 10'

>  <NUMERIC READOUT>
73.2432

$$$$
>  <COMPOUND>
O=c1[nH]c2ccc(Br)cc2c(-c2ccccc2)c1C1=NNC(c2ccco2)C1 (centres unmarked)

>  <STUDY TARGET>
P. falciparum apicoplast DNA polymerase (Pf-apPOL) (Plasmodium falciparum)

>  <REPORTED PROPERTY>
% inhibition Apo pol 10'

>  <NUMERIC READOUT>
78.0702

$$$$
>  <COMPOUND>
O=[N+]([O-])c1cc2c(cc1CN1CCCCCC1)OCO2

>  <STUDY TARGET>
P. falciparum apicoplast DNA polymerase (Pf-apPOL) (Plasmodium falciparum)

>  <REPORTED PROPERTY>
% inhibition Apo pol 10'

>  <NUMERIC READOUT>
75.1762

$$$$
>  <COMPOUND>
COCC(=O)Nc1c(-c2cccc(F)c2)nc2cc(C)ccn12

>  <STUDY TARGET>
P. falciparum apicoplast DNA polymerase (Pf-apPOL) (Plasmodium falciparum)

>  <REPORTED PROPERTY>
% inhibition Apo pol 10'

>  <NUMERIC READOUT>
83.5036

$$$$
>  <COMPOUND>
COc1ccc(NC(=O)Cn2ccc3c(=O)[nH]ccc32)cc1Cl [Molecule 10, COc1ccc(cc1Cl)NC(=O)Cn1ccc2c1cc[nH]c2=O]

>  <STUDY TARGET>
P. falciparum apicoplast DNA polymerase (Pf-apPOL) (Plasmodium falciparum)

>  <REPORTED PROPERTY>
% inhibition Apo pol 10'

>  <NUMERIC READOUT>
74.6013

$$$$

These entries and their values trace back to paper PMC9090415.
